MEASURED_TARGET: DdlB from E. coli (Escherichia coli, UniProt P07862)
Construct: made in house; host or cells: E. coli
ASSAY_INFO: Steady-state kinetics, Ki determination against DdlB (ATP varied)
Type: biochemical
PARTICULARS: Competitive (partial) model
ENDPOINT: Ki (µM)

- CHEMICAL_SMILES: "Cc1cccc(-c2ccnc3c(C(=O)O)cnn23)c1"
  MEASURED_TARGET: "DdlB from E. coli (Escherichia coli, UniProt P07862)"
  READOUT_NUMBER: 20.7

###

# remaining activity at 2100 µM annotations
MEASURED_TARGET: E. coli DdlB enzyme (D-alanine:D-alanine ligase) (Escherichia coli, UniProt P07862)
Construct: made in house; host or cells: E. coli
ASSAY_INFO: biochemical
PARTICULARS: residual activity; tested concentration 2.1 mM; read-out: DdlB RA
ENDPOINT: remaining activity at 2100 µM (%)

- MOLECULE: "O=C1C[C@H]2CN(S(=O)(=O)c3ccccc3)C[C@H]2CN1 [SB76-0562]"
  READOUT_NUMBER: 86
- MOLECULE: "O=C(Nc1ccccc1C(=O)O)c1ccccc1 [Compound 0090-0118]"
  READOUT_NUMBER: 101
- MOLECULE: "CCC(=O)N1CCC(c2nc(C3CCOCC3)no2)C1 (stereo not drawn) [Compound S428-0464]"
  READOUT_NUMBER: 95
- MOLECULE: "CCS(=O)(=O)N1CCC(F)(C(=O)N2CCCC2)CC1 [Compound T502-1464]"
  READOUT_NUMBER: 83
- MOLECULE: "Cc1ccc(-c2nc(O)nc3ccccc23)cc1 [Compound 3740-0006]"
  READOUT_NUMBER: 83
- MOLECULE: "Cc1cc(C)cc(NC(=O)N(C)CC2CCOC2)c1 (stereo not drawn) [Compound S213-1693]"
  READOUT_NUMBER: 96
- MOLECULE: "Cc1ncoc1C(=O)N1CCCC(n2c(C)cnc2C)C1 (stereo not drawn) [Compound S692-1464]"
  READOUT_NUMBER: 96
- MOLECULE: "CC(=O)N1CCCC(c2nn(C)c(=O)n2C2CCCC2)C1 (stereo not drawn) [Compound P940-4223]"
  READOUT_NUMBER: 96
- MOLECULE: "CC(O)C1CCN(Cc2ccc(Br)o2)CC1 (stereo not drawn) [Compound T786-0030]"
  READOUT_NUMBER: 94

###

MEASURED_TARGET: E. coli DdlB enzyme (D-alanine:D-alanine ligase) (Escherichia coli, UniProt P07862)
Construct: made in house; host or cells: E. coli
ASSAY_INFO: biochemical
PARTICULARS: tested concentration 2.2 mM; read-out: DdlB RA

- CHEMICAL_SMILES: "Nc1cccc2cccc(S(=O)(=O)O)c12"
  remaining activity at 2200 µM / %: 81
- CHEMICAL_SMILES: "CCOc1c(NC2CCCCC2)c(=O)c1=O"
  remaining activity at 2200 µM / %: 76
- CHEMICAL_SMILES: "O=S(=O)(O)c1ccc(O)c2ncccc12"
  remaining activity at 2200 µM / %: 96
- CHEMICAL_SMILES: "O=S(=O)(O)c1ccc2cccc(O)c2n1"
  remaining activity at 2200 µM / %: 96
- CHEMICAL_SMILES: "Cc1ccc(S(=O)(=O)N2CCOCC2)c(C)c1"
  remaining activity at 2200 µM / %: 90

###

compounds and their reported remaining activity at 2000 µM
MEASURED_TARGET: E. coli DdlB enzyme (D-alanine:D-alanine ligase) (Escherichia coli)
Construct: made in house; host or cells: E. coli
ASSAY_INFO: biochemical
PARTICULARS: tested concentration 2.0 mM; read-out: DdlB RA
ENDPOINT: remaining activity at 2000 µM (%)

- COMPOUND: "CCC(=O)N1CCC(CC(=O)N2CCOCC2)C1 (stereo not shown)"
  UNITS_LABEL: "%"
  READOUT_NUMBER: 70
- COMPOUND: "CCCCC(=O)Nc1ccc(S(N)(=O)=O)cc1"
  UNITS_LABEL: "%"
  READOUT_NUMBER: 96
- COMPOUND: "O=C(O)CCC(=O)NC1C2CC3CC(C2)CC1C3 (stereo not shown)"
  UNITS_LABEL: "%"
  READOUT_NUMBER: 90
- COMPOUND: "O=C(O)c1ccccc1NC(=O)C1CCCCC1"
  UNITS_LABEL: "%"
  READOUT_NUMBER: 104
- COMPOUND: "CCOc1c(Nc2ccc(OC)cc2)c(=O)c1=O"
  UNITS_LABEL: "%"
  READOUT_NUMBER: 93
- COMPOUND: "OB(O)c1ccc(OCc2ccccc2)c(F)c1"
  UNITS_LABEL: "%"
  READOUT_NUMBER: 98
- COMPOUND: "N#Cc1c2c([nH]c(=O)c1C(=O)O)CCCCCC2"
  UNITS_LABEL: "%"
  READOUT_NUMBER: 91
- COMPOUND: "COCCNc1c(-c2ccc(C)cc2)c(=O)c1=O"
  UNITS_LABEL: "%"
  READOUT_NUMBER: 78
- COMPOUND: "CCCCc1ccc2ncc(C(=O)O)c(O)c2c1"
  UNITS_LABEL: "%"
  READOUT_NUMBER: 85
- COMPOUND: "CCOc1ccc2c(n1)CCN(C(=O)C1CC1)C2"
  UNITS_LABEL: "%"
  READOUT_NUMBER: 97

###

The compounds listed here are annotated with their remaining activity at 1900 µM.
MEASURED_TARGET: E. coli DdlB enzyme (D-alanine:D-alanine ligase) (Escherichia coli)
Construct: made in house; host or cells: E. coli
ASSAY_INFO: biochemical
PARTICULARS: fragment library screening; tested concentration 1.9 mM; read-out: DdlB RA

- CHEMICAL_SMILES: "O=C(NCc1ccncc1)[C@H]1CC=CC[C@H]1C(=O)O"
  MEASURED_TARGET: "E. coli DdlB enzyme (D-alanine:D-alanine ligase) (Escherichia coli)"
  remaining activity at 1900 µM (%): 75
- CHEMICAL_SMILES: "O=C(O)CC1(CC(=O)Nc2cccnc2)CCCC1"
  MEASURED_TARGET: "E. coli DdlB enzyme (D-alanine:D-alanine ligase) (Escherichia coli)"
  remaining activity at 1900 µM (%): 93
- CHEMICAL_SMILES: "O=C(O)c1cccc2c1C(=O)N(Cc1ccncc1)C2"
  MEASURED_TARGET: "E. coli DdlB enzyme (D-alanine:D-alanine ligase) (Escherichia coli)"
  remaining activity at 1900 µM (%): 90
- CHEMICAL_SMILES: "O=C(Nc1cccc(F)c1)[C@H]1CCCC[C@H]1C(=O)O"
  MEASURED_TARGET: "E. coli DdlB enzyme (D-alanine:D-alanine ligase) (Escherichia coli)"
  remaining activity at 1900 µM (%): 93
- CHEMICAL_SMILES: "O=C(O)Cn1nnc(-c2cccc(-n3cccn3)c2)n1"
  MEASURED_TARGET: "E. coli DdlB enzyme (D-alanine:D-alanine ligase) (Escherichia coli)"
  remaining activity at 1900 µM (%): 92
- CHEMICAL_SMILES: "CCc1nc(NCc2ccncc2)ncc1C(=O)O"
  MEASURED_TARGET: "E. coli DdlB enzyme (D-alanine:D-alanine ligase) (Escherichia coli)"
  remaining activity at 1900 µM (%): 93
- CHEMICAL_SMILES: "O=C(O)CCC(=O)N1CCO[C@H](c2ccccc2)C1"
  MEASURED_TARGET: "E. coli DdlB enzyme (D-alanine:D-alanine ligase) (Escherichia coli)"
  remaining activity at 1900 µM (%): 93

###

MEASURED_TARGET: E. coli DdlB enzyme (D-alanine:D-alanine ligase) (Escherichia coli, UniProt P07862)
Construct: made in house; host or cells: E. coli
ASSAY_INFO: biochemical
PARTICULARS: tested concentration 3.1 mM; read-out: DdlB RA

- MOLECULE: "OB(O)c1ccc2[nH]ncc2c1 [Compound H024-0113]"
  remaining activity at 3100 µM [%]: 93
- MOLECULE: "Cc1nc(N)nc(C)c1CCC(=O)O [FF01-4599]"
  remaining activity at 3100 µM [%]: 91
- MOLECULE: "Cn1cnc2c(c1=O)CCC(N)CC2 (stereo not shown) [FF20-0287]"
  remaining activity at 3100 µM [%]: 91
- MOLECULE: "O=C1CSCC(C(=O)O)N1 (stereo not shown) [FF01-5725]"
  remaining activity at 3100 µM [%]: 107
- MOLECULE: "CN1CCN(C)C1c1ccccc1O [FF01-2467]"
  remaining activity at 3100 µM [%]: 93
- MOLECULE: "Oc1cc(-c2cccnc2)n[nH]1 [Compound 8018-0078]"
  remaining activity at 3100 µM [%]: 91
- MOLECULE: "Oc1cc(-c2ccccc2)n[nH]1 [Compound Y501-8801]"
  remaining activity at 3100 µM [%]: 102
- MOLECULE: "Cn1ccnc1S(=O)(=O)O [Compound 8019-8648]"
  remaining activity at 3100 µM [%]: 92
- MOLECULE: "Oc1cc(-c2ccncc2)n[nH]1 [Compound 8011-7794]"
  remaining activity at 3100 µM [%]: 77
- MOLECULE: "Cc1nc(C#N)c(N2CCOCC2)o1 [Compound 8008-9715]"
  remaining activity at 3100 µM [%]: 93
